Molecular target: S-adenosylmethionine synthase isoform type-2 (Homo sapiens)
Sequence (P31153 whole entry, canonical isoform): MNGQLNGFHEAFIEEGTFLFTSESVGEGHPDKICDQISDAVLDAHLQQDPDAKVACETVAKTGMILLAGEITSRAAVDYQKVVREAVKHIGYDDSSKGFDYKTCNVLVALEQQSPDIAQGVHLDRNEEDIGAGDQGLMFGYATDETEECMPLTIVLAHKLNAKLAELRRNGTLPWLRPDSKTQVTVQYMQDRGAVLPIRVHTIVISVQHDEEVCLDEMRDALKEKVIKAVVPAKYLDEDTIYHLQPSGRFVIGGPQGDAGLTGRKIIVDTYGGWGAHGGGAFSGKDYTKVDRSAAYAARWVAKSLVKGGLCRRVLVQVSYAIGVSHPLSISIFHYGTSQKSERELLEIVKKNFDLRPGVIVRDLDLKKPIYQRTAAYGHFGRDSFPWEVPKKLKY
Experiment: Determination of Mat2A Activity
pIC50: −log10 of the molar value.
Reported endpoint: pIC50

In [3]: df
Out[3]:
                                   compound  reported_endpoint  inequality_symbol  result_value
0  CCS(=O)(=O)c1ccc(-c2nccc3[nH]nc(C4CC4)c23)cc1C              pIC50                  =          7.82
1  Cc1cc(-c2c(C(=O)NC3COC3)ncc3[nH]nc(C4CC4)c23)ccc1S(C)(=O)=O              pIC50                  >          7.89
2  Cc1cc(-c2c(S(C)(=N)=O)ccc3[nH]nc(C4CC4)c23)ccc1S(C)(=O)=O (stereo not drawn)              pIC50                  =          7.05
